Tested on: LOC_OS01G13800-cb001
Assay: thermal shift delta Tm vs DMSO control; higher = stronger stabilization (binding);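 further: purified Escherichia coli-expressed rice kinase domain construct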
Settings: 12.5 µM; protein concentration 2 µM
Each record's thermal shift delta Tm is compared with low = under -0.1 °C, mid = from -0.1 °C up to 0.2 °C, high = 0.2 °C and over to give its class.

INSERT INTO measurements (compound, target_of_assay, answer_label) VALUES
  ('O=C(c1ccc(/C=C/c2n[nH]c3ccccc23)cc1)N1CCNCC1', 'LOC_OS01G13800-cb001', 'low'),
  ('CCOc1cn(-c2ccc(F)cc2C)nc1C(=O)Nc1ccc(Oc2ccnc3cc(OC)c(OC)cc23)c(F)c1', 'LOC_OS01G13800-cb001', 'mid'),
  ('C=CC(=O)Nc1cccc(C)c1Nc1ncc2cc(-c3c(Cl)c(OC)cc(OC)c3Cl)ccc2n1', 'LOC_OS01G13800-cb001', 'high');

input: Quick check: band for "Clc1ccc(C2(c3ccc(-c4cn[nH]c4)cc3)CCNCC2)cc1"
output: high

input: Quick check: band for "C[C@@H]1CN(C(=O)c2ccc(NC(=O)c3cc(O[C@H](C)c4c(Cl)ccc(F)c4Cl)c(N)nn3)cc2)C[C@H](C)N1"
output: low

* * *

System: LOC_OS01G60330-cb001
Experiment: thermal shift delta Tm vs DMSO control; higher = stronger stabilization (binding)
Conditions: 12.5 µM; protein concentration 2 µM
Where a name gives a salt, the structure may show the parent alone.
Lab note: compare thermal shift delta Tm against 1 °C. Equal or greater, write 1. Smaller, write 0.

Sample answers from the record:
INSERT INTO assay_data (compound, answer_label) VALUES
  ('C=CC(=O)Nc1ccc2ncnc(Nc3ccc(OCc4cccc(F)c4)c(Cl)c3)c2c1', 1),
  ('Cc1nc(-c2cn3c(n2)-c2ccc(-c4cnn(C(C)(C)C(N)=O)c4)cc2OCC3)n(C(C)C)n1', 0),
  ('O=C(Nc1cccc(C(F)(F)F)c1)c1cccc2cc(Oc3cc(CO)ncn3)ccc12', 0),
  ('COc1cc2ncnc(Sc3nnc(C)s3)c2cc1OC', 0),
  ('Nc1ccc(-c2ccc3ncc4ccc(=O)n(-c5cccc(C(F)(F)F)c5)c4c3c2)cn1', 1),
  ('Cc1n[nH]c2ncc(C(=O)N3CCC[C@H]3c3ccc(Cl)cc3)cc12', 0),
  ('CN1CCN(CCOc2cc(OC3CCOCC3)c3c(Nc4c(Cl)ccc5c4OCO5)ncnc3c2)CC1', 1),
  ('CC#CC(=O)N1CC[C@@H](n2c(=O)n(-c3ccc(Oc4ccccc4)cc3)c3c(N)ncnc32)C1 [ONO-4059 (GS-4059) hydrochloride]', 0),
  ('CC(C)n1nc(-c2ccc3oc(N)nc3c2)c2c(N)ncnc21', 0),
  ('CC#CC(=O)Nc1ccc2ncnc(Nc3cccc(Br)c3)c2c1', 0);

input: Could you tell me if the measured thermal shift delta Tm of "CCc1cncnc1N1CCN(Cc2nc3ccc(C(F)(F)F)cc3[nH]2)CC1" reaches 1 °C or more?
output: 0

* * *

Items are presented alongside their recorded thermal shift delta Tm.
Test system: LOC_OS01G70970-cb002
Assay: thermal shift delta Tm vs DMSO control; higher = stronger stabilization (binding)
Details: 12.5 µM; protein concentration 2 µM
Just the number in °C, nothing appended.

INSERT INTO results (molecule, experimental_readout, test_result) VALUES
  ('CC(C)(C)c1cnc(CSc2cnc(NC(=O)C3CCNCC3)s2)o1', 'thermal shift delta Tm', 0.26),
  ('CN1CCN(c2nc(C3=C(c4c[nH]c5ccccc45)C(=O)NC3=O)c3ccccc3n2)CC1 [Sotrastaurin]', 'thermal shift delta Tm', 0.69),
  ('COc1ccc(CC(=O)Nc2nc3c(s2)CCc2ccccc2-3)cc1OC', 'thermal shift delta Tm', 0.74),
  ('Cc1[nH]c(/C=C2\C(=O)Nc3ccc(S(=O)(=O)N(C)c4cccc(Cl)c4)cc32)c(C)c1C(=O)N1CCN(C)CC1', 'thermal shift delta Tm', 0.47),
  ('N#Cc1ccc(-c2c(-c3ncn[nH]3)sc(N3CCOCC3)c2C#N)c(F)c1', 'thermal shift delta Tm', 0.2),
  ('CCc1cnn2c(NCc3ccc[n+]([O-])c3)cc(N3CCCC[C@H]3CCO)nc12', 'thermal shift delta Tm', 0.27);

input: State thermal shift delta Tm on LOC_OS01G70970-cb002. Entry: "Cc1cc2c(F)c(Oc3ncnn4cc(OC[C@@H](C)OC(=O)[C@H](C)N)c(C)c34)ccc2[nH]1"
output: 0.49

input: State thermal shift delta Tm on LOC_OS01G70970-cb002. Entry: "O=C(NOCC1CC1)c1ccc(F)c(F)c1Nc1ccc(I)cc1Cl"
output: 1.09

input: State thermal shift delta Tm on LOC_OS01G70970-cb002. Entry: "COc1cc(N2CCC(N(C)C)CC2)ccc1Nc1ncc(Cl)c(Nc2ccccc2P(C)(C)=O)n1"
output: 4.81
